Listed here: items and their measured Kd.
# TARGET_OR_SYSTEM: HLA-B*40:01
# EXPERIMENT_NOTES: IEDB peptide-MHC binding, purified MHC/competitive/radioactivity; filed as Kd, often an IC50 or EC50 that approximates it; bounds were set here for any values at or beyond the usual limits of such assays
# EXPERIMENTAL_SETUP: source organism: Mammarenavirus machupoense
# output: bare number, implied unit µM

Q: Entry PDFNSLISI : reported Kd = ?
Ans: 15.8

Now for another entry.
Q: Entry AEWLEMICF : reported Kd = ?
Ans: 2.01

---

# TARGET_OR_SYSTEM: HLA-A*02:06
# EXPERIMENT_NOTES: IEDB peptide-MHC binding, purified MHC/competitive/radioactivity; filed as Kd, often an IC50 or EC50 that approximates it; bounds were set here for any values at or beyond the usual limits of such assays
# EXPERIMENTAL_SETUP: source organism: Hepatitis C virus (isolate H)
ENDPOINT_NAME: Kd

Q: Entry HPALVFDITK : reported Kd = ?
Ans: ≥ 69.8 µM
